Test Target: T1, recombinant heavy chain Protein S (human, UniProt P07225 42-296)
T1 construct: Fragment of Protein S spanning amino acids 42-296, expressed and purified from HEK293 cells; also called Protein S heavy chain; heavy chain of Protein S
T1 sequence: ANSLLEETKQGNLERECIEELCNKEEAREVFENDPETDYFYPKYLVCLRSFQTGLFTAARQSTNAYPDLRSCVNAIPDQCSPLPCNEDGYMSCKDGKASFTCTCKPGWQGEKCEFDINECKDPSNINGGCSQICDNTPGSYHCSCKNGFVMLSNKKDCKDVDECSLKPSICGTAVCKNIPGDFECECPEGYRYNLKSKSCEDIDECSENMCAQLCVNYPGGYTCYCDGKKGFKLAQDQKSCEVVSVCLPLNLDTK
Assay Procedure: ELISA; plate coated with recombinant Protein S heavy chain; 1 mM CaCl2
Readings of Binding to heavy chain (OD) for the listed binders
Provide only the numeric value, understood in OD.

Use these answered entries as a reference point.
Antibody 14 (antibody, V domains shown, Human variable region with rat Fc) VH: QVQLQESGPGLVKPSQTLSLTCTVSGGSITSDGYHWSWIRQYPGKGLDWIGYIYYTGNTYYNPSLKSRVTISVGTSQNQFSLKLISVTAADTAVYYCARRLSTGPYFDYWGQGTLVTVSS VL: QSALTQPASVSGSPGQSITISCTGTSSDVGGYEFVSWYQHHPGKAPKLMIYDVSSRPSGVSNRFSGSKSGNTASLTISGLQAEDEADYYCSSYTRSSTVVFGGGARLTVL; 2.03
Antibody 16 (antibody, V domains shown, Human variable region with rat Fc) VH: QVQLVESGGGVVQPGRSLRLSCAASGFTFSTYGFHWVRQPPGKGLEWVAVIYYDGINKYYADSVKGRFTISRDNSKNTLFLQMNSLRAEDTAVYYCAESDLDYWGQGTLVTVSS VL: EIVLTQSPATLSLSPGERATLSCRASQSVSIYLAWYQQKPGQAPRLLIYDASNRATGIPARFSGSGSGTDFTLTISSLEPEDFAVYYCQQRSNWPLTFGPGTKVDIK; 1.67

Lab note: next binder to report on.
Query: Bench note: what Binding to heavy chain (OD) did Antibody 34 (antibody, V domains shown) VH: QVQLQQSGTELVRPGTSVKMSCKAAGYTFTNHWIGWVKQRPGHGLEWIGDIYPGGGYTNYNEKFKGKASLTADTSSTTAYMQLSSLTSEDSAIYYCSRFGDQNWAWFAYWGQGTLVTVSA VL: DIQMNQSPSSLSASLGDTITITCRASQNIHMWLSWYQQKPGNIPKLLIFKTSNLHTGVPSRFSGSGSGTDFTLTISSLQPEDIATYYCLQGQSYPFTFGGGTKLEIK show?
Reply: 0.16
